This listing pairs compounds with measured pKi.
biological target: Amine oxidase [flavin-containing] A (Homo sapiens); assay: Inhibition of human recombinant MAOA expressed in insect cells by fluorescence assay
Sequence (P21397 whole entry): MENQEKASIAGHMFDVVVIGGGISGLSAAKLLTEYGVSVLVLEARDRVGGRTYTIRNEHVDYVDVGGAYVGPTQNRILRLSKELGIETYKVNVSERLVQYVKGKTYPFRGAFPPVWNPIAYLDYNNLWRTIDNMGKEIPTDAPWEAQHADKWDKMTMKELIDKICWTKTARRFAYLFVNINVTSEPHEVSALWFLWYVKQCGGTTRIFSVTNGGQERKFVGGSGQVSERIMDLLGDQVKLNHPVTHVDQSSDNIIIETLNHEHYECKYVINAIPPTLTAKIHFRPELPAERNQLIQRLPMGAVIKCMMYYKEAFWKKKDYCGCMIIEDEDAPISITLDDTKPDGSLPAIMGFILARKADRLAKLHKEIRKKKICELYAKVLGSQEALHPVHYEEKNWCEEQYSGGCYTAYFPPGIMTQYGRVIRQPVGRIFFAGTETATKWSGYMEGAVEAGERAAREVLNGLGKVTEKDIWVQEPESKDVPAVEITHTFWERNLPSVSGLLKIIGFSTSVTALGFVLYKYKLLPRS
Scale: pKi equals -log10([C]), with [C] in mol/L.

1) Nc1ccc(Oc2ccc(Cl)cc2)cc1	5.11
2) Nc1cccc(CCc2ccccc2)c1	4.03

Query: If you can, please state the reported pKi value of O=C1Nc2cc(OCc3ccccc3)ccc2C1=O .
Reply: 4.72

Query: Need pKi of Nc1cccc(-c2ccccc2)c1 , thanks.
Reply: 4.74

Query: Endpoint output: pKi of Nc1ccc(OCc2ccccc2)cc1 . Value?
Reply: 4.30

* * *

Molecular target: Amine oxidase [flavin-containing] B (Homo sapiens, UniProt P27338)
Sequence (P27338 whole entry): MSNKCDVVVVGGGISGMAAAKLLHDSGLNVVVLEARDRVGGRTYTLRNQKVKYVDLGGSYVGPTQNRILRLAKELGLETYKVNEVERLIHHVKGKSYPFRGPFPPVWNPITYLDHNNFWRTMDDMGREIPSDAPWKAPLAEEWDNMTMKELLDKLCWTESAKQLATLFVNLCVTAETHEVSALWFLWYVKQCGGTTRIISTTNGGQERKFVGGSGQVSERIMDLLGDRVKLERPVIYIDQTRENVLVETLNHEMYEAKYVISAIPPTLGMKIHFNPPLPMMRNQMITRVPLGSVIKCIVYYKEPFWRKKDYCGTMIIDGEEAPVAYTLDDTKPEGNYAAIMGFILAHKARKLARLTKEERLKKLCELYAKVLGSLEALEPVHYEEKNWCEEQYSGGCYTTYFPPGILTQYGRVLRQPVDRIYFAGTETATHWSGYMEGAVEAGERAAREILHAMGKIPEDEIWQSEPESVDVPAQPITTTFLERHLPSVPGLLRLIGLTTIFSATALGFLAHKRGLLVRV
Test: Inhibition of human recombinant MAOB expressed in insect cells by fluorescence assay
Listed below: log10 of IC50 values for each entry.
A value of 2 here means IC50 of 100 in µM, since values are log10.

1. Nc1ccc(OCc2ccccc2)cc1	1.11

Query: Give the measured log10 of IC50 of O=C1Nc2cc(-c3ccccc3)ccc2C1=O .
Reply: 0.93

Query: Fill blank: measured log10 of IC50 of the compound O=C1Nc2ccc(CCCCc3ccccc3)cc2C1=O is ____.
Reply: -3.18

Query: Bench note: what log10 of IC50 did O=C1Nc2cc(Oc3ccccc3)ccc2C1=O show?
Reply: 1.00

Query: Fill in the blank: the reported log10 of IC50 of Nc1ccc(Oc2ccc(Cl)cc2)cc1 is ____.
Reply: 1.23

Query: What does the data say about its log10 of IC50? Entry: Nc1cccc(/C=C/c2ccccc2)c1
Reply: 0.76

Query: So what does the record say about log10 of IC50 for Cl.Nc1ccc(CCCCc2ccccc2)cc1 ?
Reply: 0.74

Query: Would you kindly share the measured log10 of IC50 for Nc1ccc(/C=C/c2ccccc2)cc1 [(E)-4-STYRYLANILINE] ?
Reply: 0.80

Query: What value of measured log10 of IC50 is listed for O=C1Nc2cc(OCc3ccccc3)ccc2C1=O ?
Reply: -0.86

Query: Recorded log10 of IC50 of O=C1Nc2cc(CCc3ccccc3)ccc2C1=O , please.
Reply: 1.00

Query: Need log10 of IC50, item Nc1cccc(OCc2ccccc2)c1
Reply: 1.37
